pIC50: −log10 of the molar value.
Property name: pIC50

Data request: Quick check: pIC50 on PI3K β (Homo sapiens), item Cc1cccc2cc(Cn3nc(-c4ccc(F)c(O)c4)c4c(N)ncnc43)n(C(C)C)c(=O)c12 ?
Data returned: > 5.00

Data request: Quick check: pIC50 on PI3K β (Homo sapiens), item Cc1cccnc1-n1c(Cn2nc(-c3ccc(Cl)c(O)c3)c3c(N)ncnc32)cc2cccc(C)c2c1=O ?
Data returned: > 5.00

Data request: Quick check: pIC50 on PI3K β (Homo sapiens), item Cc1ccccc1-n1c(Cn2nc(-c3ccc4nc(N)[nH]c4c3)c3c(N)ncnc32)cc2cccc(C)c2c1=O ?
Data returned: > 5.00

Data request: Quick check: pIC50 on PI3K β (Homo sapiens), item Cc1cccc2cc(Cn3nc(C#N)c4c(N)ncnc43)n(-c3ccccc3F)c(=O)c12 ?
Data returned: < 5.00

Data request: Quick check: pIC50 on PI3K β (Homo sapiens), item CC(=O)Nc1nc2ccc(-c3nn(Cc4cc5cccc(C)c5c(=O)n4C)c4ncnc(N)c34)cc2s1 ?
Data returned: > 6.00

Data request: Quick check: pIC50 on PI3K β (Homo sapiens), item Cc1cccc2cc(Cn3nc(-c4cc(O)cc(F)c4)c4c(N)ncnc43)n(-c3ccccc3)c(=O)c12 ?
Data returned: > 5.00

Data request: Quick check: pIC50 on PI3K β (Homo sapiens), item Cc1ccncc1-n1c(Cn2nc(I)c3c(N)ncnc32)cc2cccc(C)c2c1=O ?
Data returned: < 5.00
